Test system: JAK1-dependent STAT6 phosphorylation in BEAS-2B human bronchial epithelial cells
Assay: JAK1 pathway assay: IL-13 stimulated STAT6 phosphorylation in BEAS-2B cells
Type: cell-based
Details: Homo sapiens, BEAS-2B, BEAS-2B cells, IL-13 stimulation; read-out: IL-13 p-STAT6 BEAS-2B IC50
pIC50: −log10 of the molar value.
MEASURED_ATTRIBUTE: pIC50

>>> df
                                   molecule  bound_operator  reading
0  CC1CNc2cc(OC(F)F)c(-c3n[nH]cc3NC(=O)c3cnn4cccnc34)cc2S1 (stereo not shown) [Example 37]               =     8.30
1  COc1cc2sc(C#N)cc2cc1-c1n[nH]cc1NC(=O)c1cnn2cccnc12 [Example 24]               =     7.85
2  NCC1CNc2cc(OC(F)F)c(-c3n[nH]cc3NC(=O)c3cnn4cccnc34)cc2S1 (racemic) [Example 38]               <     6.00
3  O=C(Nc1cn(CC(=O)N2CCC(CN3CCOCC3)CC2)nc1-c1cc2ccccc2cc1OC(F)F)c1cnn2cccnc12 [Example 3]               =     8.10
4  C[C@H]1CNc2cc(OC(F)F)c(-c3nn(CC(=O)N4CCC(CN5CCOCC5)CC4)cc3NC(=O)c3cnn4cccnc34)cc2S1 [Example 45]               =     7.54
5  O=C(Nc1cn(CC(=O)N2CCC(CN3CCOCC3)CC2)nc1-c1cc2c(cc1OC(F)F)NCCO2)c1cnn2cccnc12 [Example 44]               =     7.35
6  CN(C)C(=O)Cn1cc(NC(=O)c2cnn3cccnc23)c(-c2cc3c(cc2OC(F)F)SCCO3)n1 [Example 120]               =     7.34
